Data provenance is ChEMBL document CHEMBL3217745.

# Assay Method Text: Clearance in rat liver microsomes
# Type: ADME
# Particulars: read-out: CLH
Assay Metric: microsomal CLint (µL/min/mg)
Number only, in µL/min/mg; omit the unit.

Returns the measured microsomal CLint for the input compound. Input: N#Cc1ccc(OCC2(O)CN(S(=O)(=O)c3ccc(Cl)cc3Cl)C2)cc1F
87

---

# Tested On: Transient receptor potential cation channel subfamily V member 4 (Homo sapiens, UniProt Q9HBA0)
# Sequence (Q9HBA0 whole entry): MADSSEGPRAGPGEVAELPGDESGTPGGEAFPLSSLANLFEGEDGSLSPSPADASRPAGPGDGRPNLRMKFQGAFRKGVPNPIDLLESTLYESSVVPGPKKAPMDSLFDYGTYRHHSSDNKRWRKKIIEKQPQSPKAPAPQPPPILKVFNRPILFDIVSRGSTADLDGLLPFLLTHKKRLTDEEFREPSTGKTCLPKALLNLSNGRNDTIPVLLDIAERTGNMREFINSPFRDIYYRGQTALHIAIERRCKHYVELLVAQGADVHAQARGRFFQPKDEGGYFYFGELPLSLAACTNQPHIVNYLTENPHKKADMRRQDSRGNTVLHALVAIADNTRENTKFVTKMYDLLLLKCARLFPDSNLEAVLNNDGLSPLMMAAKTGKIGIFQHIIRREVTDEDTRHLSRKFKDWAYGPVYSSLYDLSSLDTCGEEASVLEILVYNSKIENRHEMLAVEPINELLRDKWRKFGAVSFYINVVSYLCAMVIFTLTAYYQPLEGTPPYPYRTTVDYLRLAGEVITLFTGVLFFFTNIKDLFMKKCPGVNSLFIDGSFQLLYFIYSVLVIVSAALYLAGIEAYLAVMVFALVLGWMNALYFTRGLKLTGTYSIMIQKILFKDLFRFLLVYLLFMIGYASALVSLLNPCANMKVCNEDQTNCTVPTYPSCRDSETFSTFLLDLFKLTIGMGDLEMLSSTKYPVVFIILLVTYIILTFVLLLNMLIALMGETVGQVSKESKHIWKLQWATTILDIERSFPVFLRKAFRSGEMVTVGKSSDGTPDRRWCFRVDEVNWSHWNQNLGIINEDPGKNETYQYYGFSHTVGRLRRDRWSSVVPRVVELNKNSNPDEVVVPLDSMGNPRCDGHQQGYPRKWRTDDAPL
# Assay Method Text: Antagonist activity at human TRPV4
Assay Metric: pIC50
Kindly note that pIC50 refers to -log10 of the concentration in mol/L and answer with the value alone.

Returns the measured pIC50 for the input compound. Input: O=S(=O)(c1ccc(Cl)cc1Cl)N1CCC(O)(CSc2ccncc2)CC1
5.66

---

# Tested On: CYP2C9 (Homo sapiens, UniProt P11712)
# Sequence (P11712 whole entry): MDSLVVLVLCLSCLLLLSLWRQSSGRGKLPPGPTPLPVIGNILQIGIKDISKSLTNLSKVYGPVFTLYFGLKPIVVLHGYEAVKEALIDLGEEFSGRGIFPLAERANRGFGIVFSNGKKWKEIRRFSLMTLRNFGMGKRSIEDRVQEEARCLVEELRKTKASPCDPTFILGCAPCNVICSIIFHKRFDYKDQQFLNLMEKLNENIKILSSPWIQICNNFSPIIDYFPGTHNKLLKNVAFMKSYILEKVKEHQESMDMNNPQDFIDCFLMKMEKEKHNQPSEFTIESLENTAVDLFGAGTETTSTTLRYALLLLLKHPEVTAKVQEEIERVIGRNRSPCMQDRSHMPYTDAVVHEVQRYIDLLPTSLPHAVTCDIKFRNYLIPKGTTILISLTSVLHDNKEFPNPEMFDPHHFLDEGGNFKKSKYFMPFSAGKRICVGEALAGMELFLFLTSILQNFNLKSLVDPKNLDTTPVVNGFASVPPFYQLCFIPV
# Assay Method Text: Inhibition of CYP2C9 (unknown origin) at 3 uM relative to control
# Type: ADME
Assay Metric: inhibition at 3 µM

Returns the measured inhibition at 3 µM for the input molecule. Input: N#Cc1ccc(OCC2(O)CN(S(=O)(=O)c3ccc(Cl)cc3Cl)C2)cc1F
< 20%

---

# Assay Method Text: Volume of distribution at steady state in Sprague-Dawley rat at 1 mg/kg, iv
# Format: ADME, organism-based
# Set-up: dose 1 mg/kg, route intravenous
# Particulars: in vivo, read-out: Vdss
Assay Metric: Vd
Quick note: number first, unit second.

Returns the measured Vd for the input compound. Input: N#Cc1ccc(OCC2(O)CN(S(=O)(=O)c3ccc(Cl)cc3Cl)C2)cc1F
4.3 L/kg

---

# Assay Method Text: Oral bioavailability in Sprague-Dawley rat at 2 mg/kg
# Format: ADME, organism-based
# Particulars: in vivo
Assay Metric: bioavailability
Quick note: number first, unit second.

Returns the measured bioavailability for the input molecule. Input: N#Cc1ccc(OCC2(O)CN(S(=O)(=O)c3ccc(Cl)cc3Cl)C2)cc1F
73%

---

# Tested On: CYP1A2 (Homo sapiens)
# Sequence (P05177 whole entry): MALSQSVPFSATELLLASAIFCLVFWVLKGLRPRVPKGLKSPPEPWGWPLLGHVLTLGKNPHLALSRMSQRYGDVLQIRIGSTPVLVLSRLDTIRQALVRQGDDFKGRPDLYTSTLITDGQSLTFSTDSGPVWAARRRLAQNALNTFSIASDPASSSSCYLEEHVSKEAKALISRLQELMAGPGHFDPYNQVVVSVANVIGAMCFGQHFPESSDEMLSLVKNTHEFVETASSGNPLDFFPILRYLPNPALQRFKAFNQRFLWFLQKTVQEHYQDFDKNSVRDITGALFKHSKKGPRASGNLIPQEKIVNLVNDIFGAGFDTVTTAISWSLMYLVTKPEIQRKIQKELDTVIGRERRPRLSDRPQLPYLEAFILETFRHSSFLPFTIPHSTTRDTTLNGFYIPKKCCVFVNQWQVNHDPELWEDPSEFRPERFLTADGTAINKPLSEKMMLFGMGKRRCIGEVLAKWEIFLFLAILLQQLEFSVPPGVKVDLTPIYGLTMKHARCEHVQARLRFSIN
# Assay Method Text: Inhibition of CYP1A2 (unknown origin) at 3 uM relative to control
# Format: ADME
Assay Metric: inhibition at 3 µM

Returns the measured inhibition at 3 µM for the input molecule. Input: N#Cc1ccc(OCC2(O)CN(S(=O)(=O)c3ccc(Cl)cc3Cl)C2)cc1F
< 20%

---

# Assay Method Text: Lipophilicity, log D of the compound
# Type: physicochemical
# Particulars: octanol/water
Assay Metric: logD

Returns the measured logD for the input compound. Input: N#Cc1ccc(OCC2(O)CN(S(=O)(=O)c3ccc(Cl)cc3Cl)C2)cc1F
3.2
